Source: the supplement of paper PMC10567573

B1: ZNF8 (parent)
chain: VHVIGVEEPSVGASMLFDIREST

Variants of: B1
Assay: protein stability index of a GFP-peptide fusion (GPS, HEK-293T) (PSI 1-6); higher = more stable;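 also: lentivirally expressed fusions sorted by FACS into six bins by GFP to DsRed ratio, PSI derived from sequencing read proportions per bin multiplied by bin number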
Details: c terminus: native
# if value of protein stability index reaches 2, tag True; if it stays below, tag False

{"variant.id": "H2C", "group": "False"}
{"variant.id": "R20S", "group": "True"}
{"variant.id": "S14M", "group": "True"}
{"variant.id": "F17A", "group": "True"}
{"variant.id": "E21I", "group": "True"}

Has I19S a recorded protein stability index greater than or equal to 2? True

Please check the record T23G and state if its protein stability index is at or above 2. True

Does protein stability index meet or surpass 2 for G12I ? False
